The reported measurements were obtained from patent US9630943B2.

Kindly state LogP^[a] for each of the entries shown.
experiment: Measurement of logP values by HPLC on reversed phase columns (EEC directive 79/831 Annex V.A8); format: physicochemical; conditions: method [a]

Task: What LogP^[a] value was documented for this molecule, Cc1nn(C)c(F)c1C(=O)Nc1cccc2c1CC(C)(C)CC2 [Example 26] ?
Output: 3.31^[a]

Task: Request: Cn1cc(C(=O)Nc2cccc3c2CCCC3(C)C)c(C(F)F)n1 [Example 4]
Output: 3.26^[a]

Task: And for CON=C1CCCc2c(NC(=S)c3nccnc3C(F)(F)F)cccc21 [Example 88] ?
Output: 3.39^[a]

Task: Also CC1c2cccc(NC(=O)c3cn(C)nc3C(F)F)c2CCC1(C)C (racemic) [Example 22] , if possible.
Output: 3.68^[a]

Task: What do you get for Cc1nc(C(F)F)c(C(=O)Nc2cccc3c2CCC(C)C3C)s1 (mixture of isomers) [Example 35] ?
Output: 3.78^[a]

Task: What do you have for CCON=C1CCCc2c(NC(=O)c3ccsc3I)cccc21 [Example 84] ?
Output: 3.83^[a]

Task: Another molecule: CC1(C)CCc2c(cccc2NC(=O)c2nccnc2I)C1 [Example 67]
Output: 4.01^[a]

Task: Next: CCON=C1CCCc2c(NC(=O)c3c(C(F)(F)F)nn(C)c3F)cccc21 [Example 73]
Output: 3.57^[a]

Task: Same thing, different molecule: CCON=C1CCCc2c(NC(=O)c3c(C)oc(C)c3C)cccc21 [Example 78]
Output: 4.01^[a]
